Measured values drawn from ChEMBL document CHEMBL4622846 for this set.

- Tested on: A549
- Test Details: Cytotoxicity against human A549 cells assessed as reduction in cell viability after 48 hrs by MTT assay
- Format: functional, cell-based
- Setup Conditions: A549, 48 h
Recorded IC50, one value per entry.

[
  {
    "Molecule": "O=C(CC1c2ccccc2N=C(SCCCCCN2CCCC2)N1c1ccc(-c2ccc(F)cc2)cc1)NCc1ccccc1 (centres undefined)",
    "Endpoint Name": "IC50",
    "Measured Result": "17.8 µM"
  },
  {
    "Molecule": "CN(C)CCCCCSC1=Nc2ccccc2C(CC(=O)NCc2ccc(F)cc2)N1c1ccc(-c2ccc(F)cc2)cc1 (centres undefined)",
    "Endpoint Name": "IC50",
    "Measured Result": "11.3 µM"
  }
]

Query: I am curious: what IC50 value has been reported for CN(C)CCCCCSC1=Nc2ccccc2C(CC(=O)NCc2ccccc2)N1c1ccc(-c2ccc(F)cc2)cc1 (centres undefined) ?
Result: 17.6 µM

Query: I am curious: what IC50 value has been reported for CN(C)CCCCCSC1=Nc2ccccc2C(CC(=O)NCc2ccc(F)cc2)N1c1ccccc1 (centres undefined) ?
Result: 36.8 µM

###

- Tested System: Voltage-dependent T-type calcium channel subunit alpha-1I (Homo sapiens, UniProt Q9P0X4)
- Sequence (Q9P0X4 whole entry): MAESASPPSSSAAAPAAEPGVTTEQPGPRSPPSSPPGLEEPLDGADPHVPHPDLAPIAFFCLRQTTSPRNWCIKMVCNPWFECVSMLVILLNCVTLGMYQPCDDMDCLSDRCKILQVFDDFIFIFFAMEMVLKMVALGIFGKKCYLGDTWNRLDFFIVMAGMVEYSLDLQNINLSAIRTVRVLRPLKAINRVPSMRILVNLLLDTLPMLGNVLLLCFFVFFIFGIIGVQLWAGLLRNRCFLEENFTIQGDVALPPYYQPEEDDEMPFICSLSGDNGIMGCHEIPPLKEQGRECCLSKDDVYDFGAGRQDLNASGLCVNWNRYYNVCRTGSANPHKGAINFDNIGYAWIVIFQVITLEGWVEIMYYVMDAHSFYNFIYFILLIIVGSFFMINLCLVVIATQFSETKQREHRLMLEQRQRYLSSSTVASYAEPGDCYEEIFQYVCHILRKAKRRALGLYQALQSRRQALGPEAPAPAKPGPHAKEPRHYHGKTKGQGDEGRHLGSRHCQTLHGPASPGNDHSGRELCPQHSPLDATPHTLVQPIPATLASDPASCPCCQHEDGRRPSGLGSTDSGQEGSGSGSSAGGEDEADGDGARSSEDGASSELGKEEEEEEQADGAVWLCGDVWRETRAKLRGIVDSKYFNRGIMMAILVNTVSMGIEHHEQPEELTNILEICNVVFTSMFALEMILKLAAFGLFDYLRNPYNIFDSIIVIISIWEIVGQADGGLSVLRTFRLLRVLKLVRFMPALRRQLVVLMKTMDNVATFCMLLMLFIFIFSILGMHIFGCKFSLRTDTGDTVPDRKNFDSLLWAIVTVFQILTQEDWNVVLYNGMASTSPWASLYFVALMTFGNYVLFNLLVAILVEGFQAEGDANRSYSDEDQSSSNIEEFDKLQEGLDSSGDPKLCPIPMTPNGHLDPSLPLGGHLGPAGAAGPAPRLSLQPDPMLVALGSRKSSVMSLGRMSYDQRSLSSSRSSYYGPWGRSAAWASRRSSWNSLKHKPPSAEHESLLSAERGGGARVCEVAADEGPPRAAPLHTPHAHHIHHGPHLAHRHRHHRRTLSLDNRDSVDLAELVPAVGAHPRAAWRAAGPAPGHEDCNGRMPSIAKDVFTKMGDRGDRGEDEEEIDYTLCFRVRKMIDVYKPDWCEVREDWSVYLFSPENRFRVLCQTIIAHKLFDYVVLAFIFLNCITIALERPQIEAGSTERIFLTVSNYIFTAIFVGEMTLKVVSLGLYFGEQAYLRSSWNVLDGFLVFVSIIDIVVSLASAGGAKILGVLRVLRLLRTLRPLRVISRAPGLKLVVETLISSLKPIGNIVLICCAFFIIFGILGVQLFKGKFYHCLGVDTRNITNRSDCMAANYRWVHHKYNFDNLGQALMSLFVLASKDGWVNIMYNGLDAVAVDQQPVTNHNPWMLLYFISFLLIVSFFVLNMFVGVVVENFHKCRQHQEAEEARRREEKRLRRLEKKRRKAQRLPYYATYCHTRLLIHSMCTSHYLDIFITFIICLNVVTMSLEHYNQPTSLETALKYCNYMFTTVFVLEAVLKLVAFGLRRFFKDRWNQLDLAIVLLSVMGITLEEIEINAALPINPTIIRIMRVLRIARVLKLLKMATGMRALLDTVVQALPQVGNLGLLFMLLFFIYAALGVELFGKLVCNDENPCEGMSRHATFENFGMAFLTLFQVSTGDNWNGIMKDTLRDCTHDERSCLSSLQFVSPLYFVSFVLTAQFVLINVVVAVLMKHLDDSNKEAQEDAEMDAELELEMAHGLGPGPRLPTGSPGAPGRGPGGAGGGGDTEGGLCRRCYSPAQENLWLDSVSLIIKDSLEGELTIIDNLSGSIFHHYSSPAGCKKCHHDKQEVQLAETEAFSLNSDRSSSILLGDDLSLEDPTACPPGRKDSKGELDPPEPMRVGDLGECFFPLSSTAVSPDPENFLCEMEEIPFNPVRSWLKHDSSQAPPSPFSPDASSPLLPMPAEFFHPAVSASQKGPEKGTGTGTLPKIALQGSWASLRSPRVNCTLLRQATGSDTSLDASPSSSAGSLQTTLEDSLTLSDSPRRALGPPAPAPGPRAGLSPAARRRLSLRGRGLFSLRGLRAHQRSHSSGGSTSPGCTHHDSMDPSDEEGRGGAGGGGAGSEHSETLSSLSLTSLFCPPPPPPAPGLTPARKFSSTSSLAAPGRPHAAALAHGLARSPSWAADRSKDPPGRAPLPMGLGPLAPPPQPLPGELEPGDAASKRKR
- Test Details: Inhibition of human Cav3.3 expressed in tsA-201 cells at 10uM by patch clamp electrophysiology
- Format: cell-based
Recorded inhibition, one value per entry.

[
  {
    "Compound": "O=C(CC1c2ccccc2N=C(SCCCCCN2CCCC2)N1c1ccc(-c2ccc(F)cc2)cc1)NCc1ccc(F)cc1 (configuration not stated)",
    "inhibition": "35.1%"
  }
]

Query: I am curious: what inhibition value has been reported for CN(C)CCCCCSC1=Nc2ccccc2C(CC(=O)NCc2ccc(F)cc2)N1c1ccc(-c2ccccc2)cc1 (configuration not stated) ?
Result: 69.3%

Query: I am curious: what inhibition value has been reported for CN(C)CCCCCSC1=Nc2ccccc2C(CC(=O)NCc2ccccc2)N1c1ccc(-c2ccccc2)cc1 (configuration not stated) ?
Result: 85.6%

Query: I am curious: what inhibition value has been reported for O=C(CC1c2ccccc2N=C(SCCCCCN2CCCC2)N1c1ccc(-c2ccccc2)cc1)NCc1ccccc1 (configuration not stated) ?
Result: 92.7%

Query: I am curious: what inhibition value has been reported for O=C(CC1c2ccccc2N=C(SCCCCCN2CCCC2)N1c1ccccc1)NCc1ccccc1 (configuration not stated) ?
Result: 78.3%

Query: I am curious: what inhibition value has been reported for CN(C)CCCCCSC1=Nc2ccccc2C(CC(=O)NCc2ccccc2)N1c1ccc(-c2ccc(F)cc2)cc1 (configuration not stated) ?
Result: 66.7%

Query: I am curious: what inhibition value has been reported for O=C(CC1c2ccccc2N=C(SCCCCCN2CCCC2)N1c1ccc(-c2ccccc2)cc1)NCc1ccc(F)cc1 (configuration not stated) ?
Result: 55.9%

Query: I am curious: what inhibition value has been reported for CN(C)CCCCCSC1=Nc2ccccc2C(CC(=O)NCc2ccc(F)cc2)N1c1ccc(-c2ccc(F)cc2)cc1 (configuration not stated) ?
Result: 92%

Query: I am curious: what inhibition value has been reported for O=C(CC1c2ccccc2N=C(SCCCCCN2CCCC2)N1c1ccc(-c2ccc(F)cc2)cc1)NCc1ccccc1 (configuration not stated) ?
Result: 68.2%

Query: I am curious: what inhibition value has been reported for CN(C)CCCCCSC1=Nc2ccccc2C(CC(=O)NCc2ccccc2)N1c1ccccc1 (configuration not stated) ?
Result: 76%

Query: I am curious: what inhibition value has been reported for O=C(CC1c2ccccc2N=C(SCCCCCN2CCCC2)N1c1ccccc1)NCc1ccc(F)cc1 (configuration not stated) ?
Result: 22.1%

###

- Tested System: Voltage-dependent T-type calcium channel subunit alpha-1G (Homo sapiens, UniProt O43497)
- Sequence (O43497 whole entry): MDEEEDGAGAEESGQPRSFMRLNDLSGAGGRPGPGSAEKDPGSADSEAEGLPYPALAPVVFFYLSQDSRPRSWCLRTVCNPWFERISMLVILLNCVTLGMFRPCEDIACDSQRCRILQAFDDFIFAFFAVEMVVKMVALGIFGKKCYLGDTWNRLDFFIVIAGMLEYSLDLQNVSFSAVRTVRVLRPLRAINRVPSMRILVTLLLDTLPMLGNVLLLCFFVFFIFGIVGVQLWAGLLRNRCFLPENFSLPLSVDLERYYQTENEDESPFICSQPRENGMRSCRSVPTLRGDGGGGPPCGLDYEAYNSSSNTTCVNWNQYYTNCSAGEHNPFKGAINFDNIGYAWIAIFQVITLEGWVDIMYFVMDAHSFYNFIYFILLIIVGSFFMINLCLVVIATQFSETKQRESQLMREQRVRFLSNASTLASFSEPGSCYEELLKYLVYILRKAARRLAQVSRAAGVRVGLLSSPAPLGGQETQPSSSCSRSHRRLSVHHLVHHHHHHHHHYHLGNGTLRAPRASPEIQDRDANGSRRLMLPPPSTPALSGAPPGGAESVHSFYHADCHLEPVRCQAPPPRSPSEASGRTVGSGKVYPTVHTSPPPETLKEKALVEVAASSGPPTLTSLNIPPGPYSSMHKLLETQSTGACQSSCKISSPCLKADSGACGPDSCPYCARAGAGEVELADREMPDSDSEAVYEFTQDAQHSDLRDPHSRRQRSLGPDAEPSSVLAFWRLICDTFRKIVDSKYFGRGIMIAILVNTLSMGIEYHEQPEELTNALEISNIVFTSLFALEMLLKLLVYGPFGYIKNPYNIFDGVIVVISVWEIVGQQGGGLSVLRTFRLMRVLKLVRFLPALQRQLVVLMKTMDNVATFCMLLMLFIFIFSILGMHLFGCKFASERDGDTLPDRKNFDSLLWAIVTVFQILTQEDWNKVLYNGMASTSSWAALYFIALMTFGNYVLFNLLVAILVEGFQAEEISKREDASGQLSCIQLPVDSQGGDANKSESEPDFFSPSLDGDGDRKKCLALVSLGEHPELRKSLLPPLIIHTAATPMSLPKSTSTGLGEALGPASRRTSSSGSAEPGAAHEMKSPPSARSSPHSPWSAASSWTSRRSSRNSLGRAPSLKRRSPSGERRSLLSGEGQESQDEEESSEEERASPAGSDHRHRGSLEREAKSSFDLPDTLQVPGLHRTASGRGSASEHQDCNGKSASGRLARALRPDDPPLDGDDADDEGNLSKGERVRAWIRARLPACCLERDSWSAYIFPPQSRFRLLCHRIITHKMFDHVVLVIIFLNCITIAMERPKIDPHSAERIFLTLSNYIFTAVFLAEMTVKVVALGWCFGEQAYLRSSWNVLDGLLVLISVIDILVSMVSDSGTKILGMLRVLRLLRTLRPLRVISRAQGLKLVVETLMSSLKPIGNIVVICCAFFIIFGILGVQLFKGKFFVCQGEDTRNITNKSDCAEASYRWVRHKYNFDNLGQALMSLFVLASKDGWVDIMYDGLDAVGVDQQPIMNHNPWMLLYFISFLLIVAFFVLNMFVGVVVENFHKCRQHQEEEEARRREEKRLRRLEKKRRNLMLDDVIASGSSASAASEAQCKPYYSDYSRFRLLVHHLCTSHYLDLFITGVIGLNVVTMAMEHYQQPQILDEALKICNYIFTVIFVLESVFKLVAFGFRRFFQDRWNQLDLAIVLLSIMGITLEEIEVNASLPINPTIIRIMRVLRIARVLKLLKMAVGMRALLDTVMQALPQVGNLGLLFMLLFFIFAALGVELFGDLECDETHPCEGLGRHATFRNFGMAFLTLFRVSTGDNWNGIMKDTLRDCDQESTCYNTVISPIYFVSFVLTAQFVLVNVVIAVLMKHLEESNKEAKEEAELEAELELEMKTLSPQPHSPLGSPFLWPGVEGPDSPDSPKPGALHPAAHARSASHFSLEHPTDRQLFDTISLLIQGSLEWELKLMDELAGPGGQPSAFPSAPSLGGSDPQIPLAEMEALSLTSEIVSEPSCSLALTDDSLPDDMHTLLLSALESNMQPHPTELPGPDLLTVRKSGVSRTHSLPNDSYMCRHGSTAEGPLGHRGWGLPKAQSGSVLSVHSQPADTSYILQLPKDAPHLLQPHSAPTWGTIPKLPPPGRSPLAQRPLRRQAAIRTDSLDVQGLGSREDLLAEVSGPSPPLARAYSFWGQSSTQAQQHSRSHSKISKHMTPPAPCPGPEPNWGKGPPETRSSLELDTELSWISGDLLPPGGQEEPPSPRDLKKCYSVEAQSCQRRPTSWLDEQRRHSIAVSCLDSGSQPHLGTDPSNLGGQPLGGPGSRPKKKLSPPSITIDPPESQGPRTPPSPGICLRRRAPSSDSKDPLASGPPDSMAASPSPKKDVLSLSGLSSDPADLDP
- Test Details: Inhibition of human Cav3.1 expressed in tsA-201 cells at 10uM by patch clamp electrophysiology
- Assay type: cell-based
Endpoint Name: inhibition (%)
Just the number please, in %, no unit attached.

Known inhibition results, listed for orientation:
[
  {
    "Compound": "CN(C)CCCCCSC1=Nc2ccccc2C(CC(=O)NCc2ccccc2)N1c1ccccc1 (centres undefined)",
    "Tested System": "Voltage-dependent T-type calcium channel subunit alpha-1G (Homo sapiens, UniProt O43497)",
    "inhibition, %": 46.5
  },
  {
    "Compound": "O=C(CC1c2ccccc2N=C(SCCCCCN2CCCC2)N1c1ccccc1)NCc1ccc(F)cc1 (centres undefined)",
    "Tested System": "Voltage-dependent T-type calcium channel subunit alpha-1G (Homo sapiens, UniProt O43497)",
    "inhibition, %": 60.1
  },
  {
    "Compound": "CN(C)CCCCCSC1=Nc2ccccc2C(CC(=O)NCc2ccc(F)cc2)N1c1ccc(-c2ccccc2)cc1 (centres undefined)",
    "Tested System": "Voltage-dependent T-type calcium channel subunit alpha-1G (Homo sapiens, UniProt O43497)",
    "inhibition, %": 31
  }
]

Here is another compound to look at.
Query: I am curious: what inhibition value has been reported for CN(C)CCCCCSC1=Nc2ccccc2C(CC(=O)NCc2ccccc2)N1c1ccc(-c2ccccc2)cc1 (centres undefined) ?
Result: 76.2

###

Recorded inhibition, one value per entry.
- Tested System: Voltage-dependent T-type calcium channel subunit alpha-1G (Homo sapiens, UniProt O43497)
- Test Details: Inhibition of human Cav3.1 expressed in tsA-201 cells at 10uM by patch clamp electrophysiology
- Type: cell-based
Just the number please, in %, no unit attached.

Query: I am curious: what inhibition value has been reported for O=C(CC1c2ccccc2N=C(SCCCCCN2CCCC2)N1c1ccc(-c2ccc(F)cc2)cc1)NCc1ccc(F)cc1 (stereo not drawn) ?
Result: 83.9

Query: I am curious: what inhibition value has been reported for O=C(CC1c2ccccc2N=C(SCCCCCN2CCCC2)N1c1ccc(-c2ccc(F)cc2)cc1)NCc1ccccc1 (stereo not drawn) ?
Result: 83.9

Query: I am curious: what inhibition value has been reported for O=C(CC1c2ccccc2N=C(SCCCCCN2CCCC2)N1c1ccccc1)NCc1ccccc1 (stereo not drawn) ?
Result: 60.4

Query: I am curious: what inhibition value has been reported for O=C(CC1c2ccccc2N=C(SCCCCCN2CCCC2)N1c1ccc(-c2ccccc2)cc1)NCc1ccccc1 (stereo not drawn) ?
Result: 93.9

Query: I am curious: what inhibition value has been reported for CN(C)CCCCCSC1=Nc2ccccc2C(CC(=O)NCc2ccc(F)cc2)N1c1ccc(-c2ccc(F)cc2)cc1 (stereo not drawn) ?
Result: 96.2

Query: I am curious: what inhibition value has been reported for O=C(CC1c2ccccc2N=C(SCCCCCN2CCCC2)N1c1ccc(-c2ccccc2)cc1)NCc1ccc(F)cc1 (stereo not drawn) ?
Result: 51.5

Query: I am curious: what inhibition value has been reported for CN(C)CCCCCSC1=Nc2ccccc2C(CC(=O)NCc2ccccc2)N1c1ccc(-c2ccc(F)cc2)cc1 (stereo not drawn) ?
Result: 97.6

Query: I am curious: what inhibition value has been reported for CN(C)CCCCCSC1=Nc2ccccc2C(CC(=O)NCc2ccc(F)cc2)N1c1ccccc1 (stereo not drawn) ?
Result: 26.7

###

- Tested System: Voltage-dependent T-type calcium channel subunit alpha-1H (Homo sapiens)
- Test Details: Inhibition of human Cav3.2 expressed in tsA-201 cells by patch clamp electrophysiology
Recorded pIC50, one value per entry.
Scale note: pIC50 = -log10(concentration in M).

Known pIC50 results, listed for orientation:
[
  {
    "Compound": "CN(C)CCCCCSC1=Nc2ccccc2C(CC(=O)NCc2ccccc2)N1c1ccc(-c2ccccc2)cc1 (stereo not drawn)",
    "Measured Result": 5.62
  },
  {
    "Compound": "CN(C)CCCCCSC1=Nc2ccccc2C(CC(=O)NCc2ccc(F)cc2)N1c1ccccc1 (stereo not drawn)",
    "Measured Result": 3.08
  },
  {
    "Compound": "O=C(CC1c2ccccc2N=C(SCCCCCN2CCCC2)N1c1ccccc1)NCc1ccc(F)cc1 (stereo not drawn)",
    "Measured Result": 4.24
  },
  {
    "Compound": "O=C(CC1c2ccccc2N=C(SCCCCCN2CCCC2)N1c1ccc(-c2ccccc2)cc1)NCc1ccc(F)cc1 (stereo not drawn)",
    "Measured Result": 3.56
  },
  {
    "Compound": "O=C(CC1c2ccccc2N=C(SCCCCCN2CCCC2)N1c1ccc(-c2ccccc2)cc1)NCc1ccccc1 (stereo not drawn)",
    "Measured Result": 5.16
  },
  {
    "Compound": "O=C(CC1c2ccccc2N=C(SCCCCCN2CCCC2)N1c1ccccc1)NCc1ccccc1 (stereo not drawn)",
    "Measured Result": 5.11
  },
  {
    "Compound": "CN(C)CCCCCSC1=Nc2ccccc2C(CC(=O)NCc2ccc(F)cc2)N1c1ccc(-c2ccc(F)cc2)cc1 (stereo not drawn)",
    "Measured Result": 5.56
  }
]

Query: Voltage-dependent T-type calcium channel subunit alpha-1H (Homo sapiens) / pIC50 / O=C(CC1c2ccccc2N=C(SCCCCCN2CCCC2)N1c1ccc(-c2ccc(F)cc2)cc1)NCc1ccccc1 (stereo not drawn) : value?
Result: 6.59
